// data source = patent US20120172295A1

Measured On: GLP-1 receptor (UniProt P43220 24-463, limits assumed)
Experiment: cell-based or functional assay
Non-standard residues stand in square brackets, D forms with d. No end group written: not given here. *: point of attachment. PEG 40 kDa = 40 kDa polyethylene glycol attached to Cys; Palmitoyl = CCCCCCCCCCCCCCCC(=O)*; Myristoyl = CCCCCCCCCCCCCC(=O)*; Octanoyl = CCCCCCCC(=O)*; Aib = CC(C)(N)C(=O)O
Parameter: EC50 (nM)

H[Aib]QGTFTSDK(Octanoyl)SKYLDEQAAKEFIC(PEG 40 kDa)WLMNT-NH2 [C8 acylated Glucagon analog peptide (SEQ ID NO: 534)] : 0.058
H[Aib]QGTFTSDK(Myristoyl)SKYLDEQAAKEFIC(PEG 40 kDa)WLMNT-NH2 [C14 acylated Glucagon analog peptide (SEQ ID NO: 535)] : 0.044
H[Aib]QGTFTSDKSKYLDEQAAKEFIC(PEG 40 kDa)WLMNT-NH2 [Non-acylated Glucagon analog peptide (SEQ ID NO: 580)] : 0.095
H[Aib]QGTFTSDK(Palmitoyl)SKYLDEQAAKEFIC(PEG 40 kDa)WLMNT-NH2 [C16 acylated Glucagon analog peptide (SEQ ID NO: 536)] : 0.033
